target.or.system: EGFR L858R/T790M/C797S (BaF3-LTC cells) (Homo sapiens, UniProt P00533, C797S/L858R/T790M)
Construct: expressed in transfected cells; host or cells: BaF3
Sequence (P00533 25-1210 T790M/C797S/L858R): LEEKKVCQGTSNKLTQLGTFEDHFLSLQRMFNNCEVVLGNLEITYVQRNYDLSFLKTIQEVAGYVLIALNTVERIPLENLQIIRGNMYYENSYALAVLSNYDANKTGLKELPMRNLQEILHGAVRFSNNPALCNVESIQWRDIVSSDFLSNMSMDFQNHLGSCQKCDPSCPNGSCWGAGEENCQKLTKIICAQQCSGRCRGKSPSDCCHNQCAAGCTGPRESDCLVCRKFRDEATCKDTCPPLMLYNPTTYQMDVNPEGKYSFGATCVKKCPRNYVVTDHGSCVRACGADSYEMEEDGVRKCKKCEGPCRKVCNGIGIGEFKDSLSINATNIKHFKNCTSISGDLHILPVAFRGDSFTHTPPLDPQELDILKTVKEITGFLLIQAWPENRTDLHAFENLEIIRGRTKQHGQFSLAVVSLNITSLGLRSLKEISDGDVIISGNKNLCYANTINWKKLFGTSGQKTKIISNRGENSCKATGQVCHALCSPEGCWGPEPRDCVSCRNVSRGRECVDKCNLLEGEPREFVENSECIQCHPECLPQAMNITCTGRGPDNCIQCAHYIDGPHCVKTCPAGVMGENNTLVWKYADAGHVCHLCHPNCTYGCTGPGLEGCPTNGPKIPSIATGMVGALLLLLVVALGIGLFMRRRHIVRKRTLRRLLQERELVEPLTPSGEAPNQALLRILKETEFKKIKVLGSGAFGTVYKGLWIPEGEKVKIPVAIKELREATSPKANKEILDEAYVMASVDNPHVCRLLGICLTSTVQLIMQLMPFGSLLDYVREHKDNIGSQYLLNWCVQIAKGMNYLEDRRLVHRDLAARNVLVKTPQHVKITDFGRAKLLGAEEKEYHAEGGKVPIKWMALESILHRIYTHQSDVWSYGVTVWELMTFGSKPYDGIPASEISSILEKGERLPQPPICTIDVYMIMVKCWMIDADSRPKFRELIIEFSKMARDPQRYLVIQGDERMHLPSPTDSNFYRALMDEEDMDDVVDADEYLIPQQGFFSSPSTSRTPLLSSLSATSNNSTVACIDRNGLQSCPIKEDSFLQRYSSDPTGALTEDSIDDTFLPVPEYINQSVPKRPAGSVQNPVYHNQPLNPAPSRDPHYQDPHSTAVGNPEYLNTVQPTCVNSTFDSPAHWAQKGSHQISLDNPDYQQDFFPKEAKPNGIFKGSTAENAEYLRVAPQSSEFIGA
procedure.summary: EGFR degradation HTRF assay, BaF3-LTC cells
Format: cell-based
measurement.parameters: read-out: DC50(nM) BaF3-LTC; BaF3-LTC cells; EGFR degradation, IC50 (DC50) from curve fit
value.kind: DC50 (nM)

molecule	endpoint.unit	assay.result
CCOc1cc(N2CCC(N3CCN(C(=O)C4CCN(c5cccc6c5oc(=O)n6C5CCC(=O)NC5=O)CC4)CC3)CC2)c(CC)cc1Nc1ncc(Br)c(Nc2ccc3nc(CC)ccc3c2P(C)(C)=O)n1 (centres unmarked)	nM	5.27
CCc1ccc2c(P(C)(C)=O)c(Nc3nc(Nc4cc(CC)c(N5CCC(N6CCN(C(=O)C7CCN(c8cccc9c8oc(=O)n9C8CCC(=O)NC8=O)CC7)CC6)CC5)cc4OC)ncc3Br)ccc2n1 (centres unmarked)	nM	2.68
CCOc1cc(N2CCC(N3CCN(C(=O)[C@H]4CN(c5cc(F)cc6c5oc(=O)n6C5CCC(=O)NC5=O)CC4(C)C)CC3)CC2)c(CC)cc1Nc1ncc(Br)c(Nc2ccc3nc(CC)ccc3c2P(C)(C)=O)n1 (some centres unmarked)	nM	18.9
CCOc1cc(N2CCC(N3CCN(CCc4cc5oc(=O)n(C6CCC(=O)NC6=O)c5cc4F)CC3)CC2)c(CC)cc1Nc1ncc(Br)c(Nc2ccc3nc(CC)ncc3c2P(C)(C)=O)n1 (centres unmarked) [Example 609]	nM	11.5
CCc1ccc2c(P(C)(C)=O)c(Nc3nc(Nc4cc(CC)c(N5CCC(N6CCN(C(=O)C7CN(c8cc(F)cc9c8oc(=O)n9C8CCC(=O)NC8=O)C7)CC6)CC5)cc4OC)ncc3Br)ccc2n1 (centres unmarked)	nM	2.27
